# PROCEDURE SUMMARY: folding enthalpy; higher = less favourable; fluorescence melt of hairpins on a sequencing array, two-state fit
# EXPERIMENTAL CONTEXT: sodium 0.088 M
folding enthalpy values for the sequences below.
Your answer is read as kcal/mol, so omit the unit and give the number.

RECORD SEQUENCE	UNIT OF MEASUREMENT	RESULT VALUE
GCGTAAGAAATTACGC ((((((....))))))	kcal/mol	-40.4
GATCAATACATTGATC ((((((....))))))	kcal/mol	-37.3
GGGAACGAAAGTTAGCCC ((((((....)))..)))	kcal/mol	-17.2
GCGGACCGCCGC ((((....))))	kcal/mol	-19.1
GCTGTCGAAAGACTGAGC ((((((....)))..)))	kcal/mol	-18.5

Notebook: GCTCCAGAAATGGAGC ((((((....)))))) , folding enthalpy read as -32

Form: sequence = GCGTCGCTACGC ((((....)))) ; folding enthalpy = -13.7

Please fill in: folding enthalpy reported for GGGCCGTCGAAAGACCCC (((..(((....)))))) = -16.6

Noted for GATCCTGTCAAGGATC ((((((....)))))) : its folding enthalpy reads -42.7

So for GGGCACGGAAACGCGCCC ((((.((....)).)))) , the logged folding enthalpy turned out to be -44

get_value(item= GCGGTTGGAAACGACTGC ((.((.(....).)).)) , readout=folding enthalpy) returns -15.3

folding enthalpy for CGACCGGAAACGGGATCG ((((((....)))..))) is -15.7

The sequence identified as GCAGCTGGAAACGGCTGC (((((.(....).))))) registered its folding enthalpy at -46.1

For GGTGATGGAAACGTCACC (((((.(....).))))) the sequence record lists folding enthalpy as -49.9

Reported folding enthalpy for CGGGAGCGGAAACGCCCG (((..(((....)))))) was -21.4

The recorded folding enthalpy for GTCGCTGGAAACGGCGAC (((((.(....).))))) is -43.8

Input GACTCGGGAAACCGAACC (..((((....))))..) . Output folding enthalpy: -9.35

The sequence identified as GATTTGCGAAAGCAATC (((.(((....)))))) registered its folding enthalpy at -12.6
